# Test system: Escherichia coli TOP10
# Test summary: shrunken log2 fold change of peptide-encoding DNA abundance (4.5 h post-induction vs induction); higher = less antimicrobial activity (less host growth inhibition)
# Condition: time post-induction: 4.5 h; library: site-saturation at positions 5, 18, 19, 20
Each entry below carries its reported shrunken log2 fold change.
Form rule: numeric answer, no unit written next to it.

Problem: Retrieve shrunken log2 fold change measured for RRIRDRPPRLPRPRPRPCAKPRP and print it.
Result: 0.244

Problem: # return recorded shrunken log2 fold change for input RRIRMRPPRLPRPRPRPMQGPRP
Result: 0.4

Problem: Dear colleague, please send me the reported shrunken log2 fold change for RRIRWRPPRLPRPRPRPFMFPRP when you can.
Result: -0.0915

###

# Test system: Escherichia coli TOP10
# Test summary: shrunken log2 fold change of peptide-encoding DNA abundance (4.5 h post-induction vs induction); higher = less antimicrobial activity (less host growth inhibition)
# Condition: time post-induction: 4.5 h; library: site-saturation at positions 5, 18, 19, 20
Property: shrunken log2 fold change
// return just the number, without any unit appended

Problem: Specify measured shrunken log2 fold change for RRIRRRPPRLPRPRPRPYKSPRP .
Result: -0.239

Problem: Give the reported shrunken log2 fold change for this sequence. RRIRQRPPRLPRPRPRPTMNPRP
Result: -0.298

Problem: Supply shrunken log2 fold change value. Item: RRIRFRPPRLPRPRPRPNPAPRP
Result: 0.0261

Problem: Identify measured shrunken log2 fold change corresponding to RRIRFRPPRLPRPRPRPKGHPRP
Result: 0.0587

Problem: Tell us which shrunken log2 fold change value is on record for RRIRTRPPRLPRPRPRPPMKPRP
Result: -0.112

Problem: Note shrunken log2 fold change for the sequence shown: RRIRHRPPRLPRPRPRPMGYPRP
Result: -0.134

Problem: Hello, please tell me recorded shrunken log2 fold change for this one: RRIRLRPPRLPRPRPRPYKLPRP
Result: -0.0961

Problem: Output shrunken log2 fold change of RRIRARPPRLPRPRPRPYVHPRP
Result: -0.728

Problem: Tell us which shrunken log2 fold change value is on record for RRIRTRPPRLPRPRPRPCVCPRP
Result: -0.206

Problem: Provide one value: measured shrunken log2 fold change of RRIRHRPPRLPRPRPRPTKSPRP
Result: -0.0287

Problem: Give the reported value of shrunken log2 fold change for this record: RRIRERPPRLPRPRPRPRAVPRP
Result: 0.264

###

# Tested on: Escherichia coli TOP10;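 further: peptides expressed intracellularly from a pBAD plasmid library in pooled LB shake-flask culture, induced with 0.3% L-arabinose, DNA abundance read by NGS, three biological replicates, DESeq2 with apeglm shrinkage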
# Test summary: shrunken log2 fold change of peptide-encoding DNA abundance (4.5 h post-induction vs induction); higher = less antimicrobial activity (less host growth inhibition)
# Condition: time post-induction: 4.5 h; library: site-saturation at positions 5, 18, 19, 20
Each entry below lists one item and its recorded shrunken log2 fold change value.
Quick one: just the number, no unit, thanks!

Sequence record	Study target	Obs value
RRIRGRPPRLPRPRPRPYHDPRP	Escherichia coli TOP10	-0.0405
RRIRHRPPRLPRPRPRPPMEPRP	Escherichia coli TOP10	-0.0615

Problem: Indicate the recorded shrunken log2 fold change value for this sequence: RRIRLRPPRLPRPRPRPCSDPRP
Result: 0.0181

Problem: Retrieve shrunken log2 fold change measured for RRIRWRPPRLPRPRPRPMKYPRP and print it.
Result: -0.311

Problem: Output measured shrunken log2 fold change for this item: RRIRNRPPRLPRPRPRPELIPRP
Result: -0.0327
